# Species: Rattus norvegicus
# Protocol details: DrugMatrix - Regimen: Daily Repeat
# Type: toxicity, organism-based, Sprague-Dawley
# Parameters: regimen Daily Repeat, gender Male, age 6-8 weeks
# Experimental context: in vivo, po, 100 mg/kg, 72 h, tissue Plasma, route oral GAVAGE, dose level Low, time 3 day, vehicle .5 % CMC
Observable: ALBUMIN

# Compound, Observed measurement
measured = [
    ("C#C[C@]1(O)CC[C@H]2[C@@H]3CCC4=Cc5oncc5C[C@]4(C)[C@H]3CC[C@@]21C", "4.17 G/DL"),
]

I would be grateful if you could provide ALBUMIN for each of the following entries.
1. Nc1nc2c(c(=O)[nH]1)N(C=O)C(CNc1ccc(C(=O)N[C@@H](CCC(=O)O)C(=O)O)cc1)CN2 (some centres undefined)
2. CC[C@]1(O)CC[C@H]2[C@@H]3CCC4=CCCC[C@@H]4[C@H]3CC[C@@]21C
3. CC=Cc1ccc(O)c(OC)c1

RESULT:
1. 4.43 G/DL
2. 3.67 G/DL
3. 4.73 G/DL

---

# Species on record: Rattus norvegicus
# Protocol details: DrugMatrix - Regimen: Daily Repeat
# Assay type: toxicity, organism-based, Sprague-Dawley
# Design: regimen Daily Repeat, gender Male, age 6-8 weeks
# Experimental context: in vivo, po, 0 mg/kg, 72 h, tissue Plasma, route oral GAVAGE, dose level Control, time 3 day, vehicle .5 % CMC
Outcome: satisfied for ALANINE AMINOTRANSFERASE of at least 50 u/L; not satisfied for anything lower.

# Molecule, Group
rows = [
    ("Cc1cnc(C(=O)NCCc2ccc(S(=O)(=O)NC(=O)NC3CCCCC3)cc2)cn1 [GLIPIZIDE]", "satisfied"),
    ("C[C@]12C/C(=C/O)C(=O)C[C@@H]1CC[C@@H]1[C@@H]2CC[C@@]2(C)[C@H]1CC[C@]2(C)O [OXYMETHOLONE]", "not satisfied"),
    ("CO[C@H]1C[C@@H]2CC[C@@H](C)[C@@](O)(O2)C(=O)C(=O)N2CCCC[C@H]2C(=O)O[C@H]([C@H](C)C[C@@H]2CC[C@@H](O)[C@H](OC)C2)CC(=O)[C@H](C)/C=C(\\C)[C@@H](O)[C@@H](OC)C(=O)[C@H](C)C[C@H](C)/C=C/C=C/C=C/1C [SIROLIMUS]", "not satisfied"),
    ("C[C@@H](O)[C@H]1C(=O)N2C(C(=O)O)=C(S[C@@H]3CN[C@H](C(=O)N(C)C)C3)[C@H](C)[C@H]12 [MEROPENEM]", "not satisfied"),
    ("Nc1cccc(Cl)c1 [3-CHLOROANILINE]", "not satisfied"),
]

Next:
QUERY: Check if ALANINE AMINOTRANSFERASE >= 50 u/L (inclusive). Item: C=C(CC)C(=O)c1ccc(OCC(=O)O)c(Cl)c1Cl [ETHACRYNIC ACID]
RESULT: not satisfied

---

Could you please report measured MEAN CORPUSCULAR HEMOGLOBIN for the items listed next?
# Species: Rattus norvegicus
# Protocol details: DrugMatrix - Regimen: Daily Repeat
# Type: toxicity, organism-based, Sprague-Dawley
# Set-up: regimen Daily Repeat, gender Male, age 6-8 weeks
# Experimental context: in vivo, po, 0 mg/kg, 120 h, tissue Blood, route oral GAVAGE, dose level Control, time 5 day, vehicle .5 % CMC
One number for each entry, in pg.

Below are worked cases with known answers.
# Molecule, Readout unit, MEAN CORPUSCULAR HEMOGLOBIN
data = [
    ("CCOC(=O)[C@H](CCc1ccccc1)N[C@@H](C)C(=O)N1Cc2ccccc2C[C@H]1C(=O)O", "pg", 25.68),
    ("CC(C(=O)O)c1ccc(-c2ccccc2)c(F)c1 (stereo not drawn) [FLURBIPROFEN]", "pg", 23.22),
    ("C[C@]12C/C(=C/O)C(=O)C[C@@H]1CC[C@@H]1[C@@H]2CC[C@@]2(C)[C@H]1CC[C@]2(C)O [OXYMETHOLONE]", "pg", 19.82),
    ("C[C@@H]1CC[C@H]2[C@@H](C)C(=O)O[C@@H]3O[C@@]4(C)CC[C@@H]1[C@]32OO4 [ARTEMISININ]", "pg", 23.95),
    ("CN1C(=O)CN=C(c2ccccc2)c2cc(Cl)ccc21 [DIAZEPAM]", "pg", 25.02),
    ("Nc1cccc(Cl)c1 [3-CHLOROANILINE]", "pg", 20.6),
    ("CC(=O)O[C@]1(C(C)=O)CC[C@H]2[C@@H]3C=C(Cl)C4=CC(=O)[C@@H]5C[C@@H]5[C@]4(C)[C@H]3CC[C@@]21C [CYPROTERONE ACETATE]", "pg", 25.68),
]

Let us move to another entry and its MEAN CORPUSCULAR HEMOGLOBIN.
Record C[C@@H](O)[C@H]1C(=O)N2C(C(=O)O)=C(S[C@@H]3CN[C@H](C(=O)N(C)C)C3)[C@H](C)[C@H]12 [MEROPENEM] , field MEAN CORPUSCULAR HEMOGLOBIN: 23.22

Each recorded value in this set is attributed to ChEMBL document CHEMBL3885881.
